- test.target: FGFR3(h) (Homo sapiens, UniProt P22607)
- Construct: purchased Eurofins (KinaseProfiler platform)
- Sequence (P22607 23-806): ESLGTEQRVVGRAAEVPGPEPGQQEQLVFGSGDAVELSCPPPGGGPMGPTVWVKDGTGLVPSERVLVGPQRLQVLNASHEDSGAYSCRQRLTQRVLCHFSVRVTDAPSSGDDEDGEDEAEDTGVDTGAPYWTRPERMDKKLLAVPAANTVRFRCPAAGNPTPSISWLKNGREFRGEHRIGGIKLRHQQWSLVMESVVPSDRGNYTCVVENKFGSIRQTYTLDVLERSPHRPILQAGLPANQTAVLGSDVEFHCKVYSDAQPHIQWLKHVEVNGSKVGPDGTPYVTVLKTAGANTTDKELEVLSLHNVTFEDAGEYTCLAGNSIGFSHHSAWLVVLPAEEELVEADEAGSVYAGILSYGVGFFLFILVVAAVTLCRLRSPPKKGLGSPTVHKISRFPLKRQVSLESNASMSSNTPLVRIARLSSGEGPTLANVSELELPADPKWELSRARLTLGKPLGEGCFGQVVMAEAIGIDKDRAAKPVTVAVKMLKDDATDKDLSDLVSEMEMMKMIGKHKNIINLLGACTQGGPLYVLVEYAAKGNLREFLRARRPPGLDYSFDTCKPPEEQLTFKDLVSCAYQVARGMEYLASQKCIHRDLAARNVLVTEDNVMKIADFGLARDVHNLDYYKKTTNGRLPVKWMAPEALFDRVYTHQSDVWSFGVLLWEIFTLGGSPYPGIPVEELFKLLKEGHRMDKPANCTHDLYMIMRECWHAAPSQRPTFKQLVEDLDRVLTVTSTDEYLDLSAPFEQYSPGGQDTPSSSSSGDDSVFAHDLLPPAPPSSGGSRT
- assay.explanation: Eurofins KinaseProfiler off-target kinase inhibition
- Type: biochemical
value.type: IC50

c1cn2c(n1)c(Nc1ccc(N3CCOCC3)cc1)nc1ccc(-c3cn[nH]c3)cc12 [Compound 1] = > 10000 nM

---

- test.target: MEK1(h) (Homo sapiens)
- Construct: purchased Eurofins (KinaseProfiler service)
- Sequence (Q02750 whole entry): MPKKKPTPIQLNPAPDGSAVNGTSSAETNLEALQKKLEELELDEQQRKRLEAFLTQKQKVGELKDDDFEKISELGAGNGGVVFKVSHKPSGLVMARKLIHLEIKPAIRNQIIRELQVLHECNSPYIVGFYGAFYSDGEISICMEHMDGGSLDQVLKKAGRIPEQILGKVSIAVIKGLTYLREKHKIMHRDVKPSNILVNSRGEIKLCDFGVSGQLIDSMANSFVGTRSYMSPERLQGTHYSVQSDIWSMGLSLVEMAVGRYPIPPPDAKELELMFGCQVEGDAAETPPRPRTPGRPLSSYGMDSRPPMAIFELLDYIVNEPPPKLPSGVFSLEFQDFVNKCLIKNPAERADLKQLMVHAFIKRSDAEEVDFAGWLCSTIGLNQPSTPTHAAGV
- assay.explanation: Eurofins KinaseProfiler off-target kinase inhibition
- Type: biochemical
value.type: IC50

c1cn2c(n1)c(Nc1ccc(N3CCOCC3)cc1)nc1ccc(-c3cn[nH]c3)cc12 [Compound 1] = > 10000 nM
